System: NCI-H460
test.name: Growth inhibition of human NCI-H460 cells at 10 uM after 48 hrs by sulforhodamine B assay
Format: functional, cell-based
Calls of active or inactive are those of the source. No cut-off for these calls is given here.
Outcomes: active, inactive

{"smiles.string": "O=C1/C(=C\\c2ccc[nH]2)c2ccccc2N1c1c(Cl)cccc1Cl", "class.label": "inactive"}
{"smiles.string": "O=C1/C(=C\\c2cccn2Cc2ccc(F)cc2)c2ccccc2N1c1c(Cl)cccc1Cl", "class.label": "inactive"}
{"smiles.string": "Cc1ccc(S(=O)(=O)n2cccc2/C=C2\\C(=O)N(c3c(Cl)cccc3Cl)c3ccccc32)cc1", "class.label": "inactive"}
{"smiles.string": "O=C1/C(=C\\c2cccn2Cc2ccc(Cl)cc2)c2ccccc2N1c1c(Cl)cccc1Cl", "class.label": "inactive"}
{"smiles.string": "O=C1/C(=C\\c2cccn2Cc2ccccc2)c2ccccc2N1c1c(Cl)cccc1Cl", "class.label": "active"}
{"smiles.string": "O=C1/C(=C\\c2cccn2C(=O)c2ccccc2)c2ccccc2N1c1c(Cl)cccc1Cl", "class.label": "inactive"}
{"smiles.string": "O=C1/C(=C\\c2cccn2C(=O)c2ccc(Cl)s2)c2ccccc2N1c1c(Cl)cccc1Cl", "class.label": "inactive"}
{"smiles.string": "O=C1/C(=C\\c2cccn2C(=O)c2ccc(Cl)cc2)c2ccccc2N1c1c(Cl)cccc1Cl", "class.label": "inactive"}

====

Tested on: SF-539
test.name: Growth inhibition of human SF539 cells at 10 uM after 48 hrs by sulforhodamine B assay
Format: functional, cell-based
Calls of active or inactive are those of the source. The rule behind the calls is not given here.
Outcome codes: Y = active, N = inactive

{"smiles.string": "O=C1/C(=C\\c2cccn2Cc2ccc(F)cc2)c2ccccc2N1c1c(Cl)cccc1Cl", "assay.target": "SF-539", "class.label": "N"}
{"smiles.string": "O=C1/C(=C\\c2cccn2C(=O)c2ccccc2)c2ccccc2N1c1c(Cl)cccc1Cl", "assay.target": "SF-539", "class.label": "N"}
{"smiles.string": "O=C1/C(=C\\c2cccn2Cc2ccc(Cl)cc2)c2ccccc2N1c1c(Cl)cccc1Cl", "assay.target": "SF-539", "class.label": "N"}
{"smiles.string": "Cc1ccc(S(=O)(=O)n2cccc2/C=C2\\C(=O)N(c3c(Cl)cccc3Cl)c3ccccc32)cc1", "assay.target": "SF-539", "class.label": "N"}
{"smiles.string": "O=C1/C(=C\\c2cccn2C(=O)c2ccc(Cl)cc2)c2ccccc2N1c1c(Cl)cccc1Cl", "assay.target": "SF-539", "class.label": "N"}
{"smiles.string": "O=C1/C(=C\\c2cccn2Cc2ccccc2)c2ccccc2N1c1c(Cl)cccc1Cl", "assay.target": "SF-539", "class.label": "Y"}
{"smiles.string": "O=C1/C(=C\\c2ccc[nH]2)c2ccccc2N1c1c(Cl)cccc1Cl", "assay.target": "SF-539", "class.label": "N"}
{"smiles.string": "O=C1/C(=C\\c2cccn2C(=O)c2ccc(Cl)s2)c2ccccc2N1c1c(Cl)cccc1Cl", "assay.target": "SF-539", "class.label": "N"}

====

Test system: HCT-15
test.name: Growth inhibition of human HCT15 cells at 10 uM after 48 hrs by sulforhodamine B assay
Type: functional, cell-based
Activity calls are given as the source filed them. The calls are words filed in the database; no cut-off is given here.
Outcomes: True (active), False (inactive)

{"smiles.string": "O=C1/C(=C\\c2cccn2Cc2ccccc2)c2ccccc2N1c1c(Cl)cccc1Cl", "class.label": "True"}
{"smiles.string": "O=C1/C(=C\\c2ccc[nH]2)c2ccccc2N1c1c(Cl)cccc1Cl", "class.label": "False"}
{"smiles.string": "O=C1/C(=C\\c2cccn2C(=O)c2ccc(Cl)cc2)c2ccccc2N1c1c(Cl)cccc1Cl", "class.label": "False"}
